Measured melting point, listed per entry for reference.

Consider the worked cases shown below.
>>> df
                                   molecule  measured_quantity    assay_value
0  CCN1c2ncccc2C(=O)N(C)c2ccc(-c3cnn(C)c3)nc21      melting point    65 to 67 °C
1  CN1C(=O)CCC1(O)c1ccc(Cl)c(S(=O)(=O)NCCc2ccccc2)c1 (stereo unspecified)      melting point  149 to 153 °C
2  CC(=NC#N)N[C@@H]1c2cc(C#N)ccc2OC(C)(C)[C@H]1OS(C)(=O)=O (relative stereo)      melting point  202 to 204 °C

Consider now this further molecule.
Query: Specify melting point for "O=C(Nc1cnc(OCCO)c(NC(=O)OCCCl)c1)OCCCl" and stop.
Reply: 176 to 178 °C

* * *

Measured melting point, listed per entry for reference.

Consider the worked cases shown below.
In [3]: df
Out[3]:
                                   compound    assay_value
0  CSc1nc2cc(Cl)c(Cl)cc2n1C1OC(CO)C(O)C1O (configuration not stated)  204 to 206 °C
1   CC(CN(C)C)Nc1ccnc2cc(Cl)ccc12 (racemic)  168 to 170 °C
2  CCCc1c(SCCCOc2ccc3c(=O)cc(C(=O)O)oc3c2CCC)ccc(C(C)=O)c1N  202 to 204 °C
3  Nc1ncccc1-c1nc2ccc(-c3cccnc3)nc2n1-c1ccc(CC(=O)Nc2ccccc2)cc1  162 to 164 °C
4   COc1ccc2nc(NC(=O)c3nc4ccccc4[nH]3)sc2c1         246 °C
5           CCOC(=O)c1c(Cl)c2cccnc2n(C)c1=O  132 to 135 °C
6  CC1(C)CC(N2CCCC2)=CC(=C(C#N)S(C)(=O)=O)C1  260 to 261 °C
7  CCOC(=O)c1ccc(-c2c[nH]c(-c3ccc4c(c3)C(C)(C)CCC4(C)C)n2)cc1  186 to 188 °C
8               CC1(C)CS(=O)(=O)CC(C)(C)N1N         122 °C
9                    NC(CCCCCCCCC(N)=NO)=NO         182 °C

Query: Specify melting point for "Nc1ccc2sc(C=Cc3ccccc3)nc2c1" and stop.
Reply: 154 to 156 °C

Query: Specify melting point for N=C(N)NCCCCOc1ccc2c(c1)NC(=O)C(CCC(=O)O)C2 (configuration not stated) and stop.
Reply: 176 to 177 °C

Query: Specify melting point for "COC(=O)CS(=O)(=O)c1ccccc1C(=O)OC" and stop.
Reply: 102 to 103 °C

Query: Specify melting point for "ClCc1ccc(-n2c3ccccc3c3ccccc32)cc1" and stop.
Reply: 88 to 89 °C

Query: Specify melting point for "O=c1[nH]cnc2cccc(Br)c12" and stop.
Reply: 239 to 240 °C

Query: Specify melting point for "CC=CCn1c(C)c(C)c2cnnc(OCc3c(F)cccc3F)c21" and stop.
Reply: 85 to 94 °C

* * *

Measured melting point, listed per entry for reference.

Consider the worked cases shown below.
In [3]: df
Out[3]:
                                   compound    assay_value
0  COc1cccc(C(=O)Nc2ccc(Cn3cnc(O)c3C(N)=O)cc2)c1  257 to 259 °C
1  O=S(=O)(Nc1cccc(COc2cccc3cccnc23)c1)c1ccc(F)cc1  206 to 207 °C
2  COc1ccccc1-n1c(-c2ccc(N(C)C)cc2)nnc1C(C)O (stereo not given)         145 °C
3  CN(Cc1ccccc1)c1cc(Oc2cccc(C(F)(F)F)c2)nc(C(=O)O)c1    80 to 82 °C
4  CCCC(=O)c1cnc2c(OC)cccc2c1Nc1c(C)cc2c(c1C)OCO2  150 to 152 °C

Query: Specify melting point for "CSc1nc(=O)n(CC(=O)O)cc1F" and stop.
Reply: 244 to 245 °C

Query: Specify melting point for "CCOn1c(SC)n[nH]c1=O" and stop.
Reply: 99 °C

* * *

Measured melting point, listed per entry for reference.

Consider the worked cases shown below.
In [3]: df
Out[3]:
                                   molecule    assay_value
0  O=C(C(c1ccccc1)n1cnc2[nH]ncc2c1=S)N1CCN(c2ccccn2)CC1 (stereo not given)  242 to 246 °C
1  CC1CN(c2ccccc2)c2ccccc2N1 (stereo not given)    91 to 93 °C
2  CC(C)(C)OC(=O)NCC(=O)NCC(=O)Oc1ccc(-c2nn(C3CCCC3)c3c(F)cccc23)cc1  103 to 104 °C
3  COc1ccc(-c2cc(COS(C)(=O)=O)c(=O)n(CCCc3ccc(F)cc3)n2)cc1F  112 to 116 °C

Query: Specify melting point for "N=C(Nc1ccc(F)c(NC(=O)/C=C/c2ccccc2C(F)(F)F)c1)c1cccs1" and stop.
Reply: 208 to 209 °C

Query: Specify melting point for CCCCCCCCCCCCc1nnn(C(C(=O)O)c2ccccc2)n1 (stereo not given) and stop.
Reply: 76 to 78 °C

Query: Specify melting point for "COc1cc(COc2nn(-c3ccccc3)cc2C=O)ccc1OCc1nc(-c2cccnc2)oc1C" and stop.
Reply: 161 to 162 °C

Query: Specify melting point for "COC(=O)CS(=O)(=O)Nc1c(F)cccc1Oc1nc(OC)cc(OC)n1" and stop.
Reply: 111 to 114 °C

Query: Specify melting point for "CN1C(=O)C(C)(C)C(=O)N(C)c2cc(Br)ccc21" and stop.
Reply: 194 to 195 °C

Query: Specify melting point for CC(C)NCC(O)COc1ccc(-c2oc3ccccc3c2C(=O)c2ccccc2)cc1 (stereo not given) and stop.
Reply: 53 to 59 °C

Query: Specify melting point for "CSC1=C(c2cc3ccccc3s2)N2CCN=C2S1" and stop.
Reply: 95 to 97 °C

Query: Specify melting point for "COc1ccc(N2CCC(C(N)=O)CC2)cc1" and stop.
Reply: 178 to 181 °C

Query: Specify melting point for "CCOC(=O)C1CCN(c2nc(COc3ccc(CO)cc3OC)c(C)s2)CC1" and stop.
Reply: 84 to 85 °C

Query: Specify melting point for "CC(=O)Nc1c(C(=O)c2ccccc2)[nH]c2cc(N)ccc12" and stop.
Reply: 219 to 221 °C

Query: Specify melting point for NC1=NS(=O)N=C1NCCCOc1cccc2c(=O)[nH]ccc12 (stereo not given) and stop.
Reply: 235 °C

Query: Specify melting point for "Cn1c(C(=O)N[C@H]2CCCC[C@H]2C(=O)N[C@H](C#N)C2CC2)cc2ccccc21" and stop.
Reply: 242 to 246 °C

Query: Specify melting point for "C=CCN(CC=C)c1nc(NC(=O)CC)n2oc(=O)nc2n1" and stop.
Reply: 157 to 159 °C

Query: Specify melting point for CC(O)CNc1ccnc2cc(Cl)ccc12 (stereo not given) and stop.
Reply: 168 to 170 °C

* * *

Measured melting point, listed per entry for reference.

In [3]: df
Out[3]:
                                   compound    assay_value
0  CNC(=O)C1(Oc2ccc3c(c2)c(-c2cc4cccnc4[nH]2)cn3C)CCC1  249 to 250 °C
1  CCOC(=O)C1=C(N)NC(N)=C(C(=O)OCC)C1c1ccc(SC)cc1         127 °C
2  NCc1ccc2c(c1)nc(CN1C(=O)N(C3CC3)Cc3ccccc31)n2CCCC(F)(F)F         154 °C
3  CSCC(C)Nc1nccc(-c2ccnc(Cl)c2)n1 (stereo unspecified)  103 to 106 °C

Query: Specify melting point for "Cc1cc(Cc2ccccc2)c(NCc2ccccn2)c(=O)n1CC(=O)O" and stop.
Reply: 63 °C

Query: Specify melting point for c1ccc(CN2CCOC(CN3c4ccccc4CCc4ccccc43)C2)cc1 (stereo unspecified) and stop.
Reply: 139 to 140 °C

Query: Specify melting point for "O=C(O)CCc1ccc(CO)cc1" and stop.
Reply: 124 to 126 °C

Query: Specify melting point for "COC(=O)c1c(-c2ccc(OC)cc2)ccc2ccccc12" and stop.
Reply: 115 to 116 °C

Query: Specify melting point for "O=C(O)c1nc(C2CC2)nc(Cl)c1Cl" and stop.
Reply: 126 to 127 °C

* * *

Measured melting point, listed per entry for reference.

Consider the worked cases shown below.
>>> df
                                   compound  measured_quantity    assay_value
0  Cn1c(-c2ccc(C(O)(C(F)(F)F)C(F)(F)F)cc2)cc2ccccc2c1=O      melting point  265 to 266 °C
1    CCCn1ccnc1C(=O)Cc1ccc([N+](=O)[O-])cc1      melting point    95 to 96 °C
2  CC(=O)N1CCN(c2cc3c(c(N)c2F)c(=O)c(C(=O)O)cn3C2CC2)CC1C (stereo unspecified)      melting point  269 to 271 °C
3                    OC[C@@H]1CC[C@H](CO)O1      melting point  128 to 129 °C
4  C=CCN(CC=C)C(=O)C1=C(C(=O)Nc2cc(OC3CCCC3)c(Cl)cc2F)CCCC1      melting point    74 to 76 °C

Query: Specify melting point for "CSc1ccccc1-c1ccc(C(=O)O)cc1" and stop.
Reply: 220 to 222 °C

Query: Specify melting point for "CS(=O)(=O)Nc1ccc2nc(CCl)ccc2c1" and stop.
Reply: 160 to 162 °C

Query: Specify melting point for CSCCCCC(c1cc(F)ccc1F)S(=O)(=O)c1ccc(Cl)cc1 (stereo unspecified) and stop.
Reply: 103 to 106 °C

Query: Specify melting point for CCC(C(=O)Oc1cc(=O)n(-c2ccccc2)c2ncccc12)c1ccccc1 (stereo unspecified) and stop.
Reply: 166 to 168 °C

Query: Specify melting point for "CCCOc1c(-c2ccccc2)n[nH]c1-c1ccccc1" and stop.
Reply: 132 °C

Query: Specify melting point for "CCOC(=O)c1c(N2CCN(C(=O)c3cccs3)CC2)c2cc(Cl)cnc2n(Cc2cccc(F)c2)c1=O" and stop.
Reply: 186 °C

Query: Specify melting point for "CCC(=O)Nc1nc2c(s1)-c1nc(-c3ccccc3)ncc1CC2" and stop.
Reply: 274 to 275 °C

Query: Specify melting point for "C=CC(=O)NCCNC(=O)C=C" and stop.
Reply: 150 to 155 °C

Query: Specify melting point for COC(OC)C(C)Nc1cc(OCc2ccccc2)ccc1[N+](=O)[O-] (stereo unspecified) and stop.
Reply: 57 to 62 °C

Query: Specify melting point for "CCCCCCCCCCOc1cc(OCCCCCCc2cccc(OCc3ccccc3)c2OCc2ccccc2)cc(C(=O)OC)c1" and stop.
Reply: 45 to 46 °C

Query: Specify melting point for "CC(C)c1nn(-c2ccc(C(F)(F)F)cn2)cc1CCCOc1cccc(CCC(=O)O)c1" and stop.
Reply: 102 to 103 °C

Query: Specify melting point for "Nc1nc(CSCCN2CCN(C(c3ccccc3)c3ccccc3)CC2)cs1" and stop.
Reply: 159 to 161 °C

Query: Specify melting point for "COC(=O)c1cc(C)cc(OC)c1C1=CC(=O)c2c(O)cccc2C1=O" and stop.
Reply: 140 to 143 °C

Query: Specify melting point for "O=c1[nH]c(-c2[nH]c3ccccc3c2Cl)no1" and stop.
Reply: 240 to 241 °C

Query: Specify melting point for "CC(=Cc1ccc(N(C)C)cc1Cl)[N+](=O)[O-]" and stop.
Reply: 93 to 94 °C

Query: Specify melting point for "CC(C)CCSC1=C(O)CC(C)(C)CC1=O" and stop.
Reply: 59 to 61 °C
